settings: 975 K; Crystal; Torsion effusion method
endpoint.label: vapor or sublimation pressure (kPa)

{"molecule": "[Br-].[Br-].[Br-].[Lu+3] [lutetium tribromide]", "result.units": "kPa", "vapor or sublimation pressure": 0.000813}

[P] [Br][Yb]([Br])[Br] [ytterbium tribromide]
[Q] [I][Yb][I] [ytterbium(II) iodide]
[R] [I][Lu]([I])[I] [lutetium triiodide]
// ascending sort on recorded vapor or sublimation pressure Answer with the labels in sequence, matching the requested order. Q, P, R
(Q: 2.8e-05 kPa, P: 0.000977 kPa, R: 0.002138 kPa)

###

conditions: 953 K; Crystal; Torsion effusion method
endpoint.label: vapor or sublimation pressure (kPa)

{"compound": "[Cl][Lu]([Cl])[Cl] [lutetium trichloride]", "result.units": "kPa", "vapor or sublimation pressure": "7.9e-05"}
{"compound": "[I][Lu]([I])[I] [lutetium triiodide]", "result.units": "kPa", "vapor or sublimation pressure": 0.000933}

[A] [Br][Yb]([Br])[Br] [ytterbium tribromide]
[B] [Cl][Yb]([Cl])[Cl] [ytterbium trichloride]
Determine, for A and B , which has the greater value of vapor or sublimation pressure. Your answer should be the label attached to the chosen record. A

The values you see were collected from the NIST ThermoML archive (doi:10.1021/je049579x).
